- Tested on: P. falciparum stage V gametocytes
- Set-up: BacTiter-Glo ATP luminescence viability of purified stage V gametocytes in 384-well plates, per cent inhibition versus DMSO
- reported conditions: 48 h, 5 µM; inhibitor
About 3,200 (25%) of roughly 13,000 compounds showed an effect of 50% or more. The list shows a part of the results.
Label Yes when % Inhibition >= 10%; otherwise No.

molecule: CCOc1cc2ncnc(Nc3cc(Cl)c(Cl)c(Cl)c3)c2cc1OCC
discrete label: No

molecule: Oc1ccccc1CCNC1CCc2ccccc2C1 (centres unmarked)
discrete label: Yes

molecule: O=C(Nc1ccccc1)c1nn(CCCN2CCC(N3CCCC3)CC2)cc1-c1ccc(Cl)c(Cl)c1
discrete label: Yes

molecule: Oc1ccc(CCNc2nc(NCc3ccccc3-c3ccc(F)cc3)nc(N3CCNCC3)n2)cc1
discrete label: Yes

molecule: CN(C)CCNc1cc(-c2cccnc2)nc(-c2ccncc2)n1
discrete label: No

molecule: O=C(NCc1ccccc1)c1nn(CCCN2CCC(N3CCCC3)CC2)cc1-c1ccc(Cl)c(Cl)c1
discrete label: Yes

molecule: CN(C)c1cccc2c1nc(-c1ccco1)n2CCNCc1ccccc1
discrete label: Yes

molecule: O=C(NCc1ccc2c(c1)OCO2)c1nn(CCN2CCC(N3CCCC3)CC2)cc1-c1ccc(Cl)c(Cl)c1
discrete label: No

---

Listing of entries alongside the reported % Inhibition.
- Tested on: P. falciparum stage V gametocytes
- Set-up: BacTiter-Glo ATP luminescence viability of purified stage V gametocytes in 384-well plates, per cent inhibition versus DMSO
- reported conditions: 48 h, 5 µM; inhibitor
The whole screen tested about 13,000 compounds, of which about 3,200 (25%) showed an effect of 50% or more. The list shows a part of the results.
recorded endpoint: % Inhibition (%)

compound: CCC(=O)N[C@@H]1CN[C@@H](C#Cc2cc3c(Nc4ccc(OCc5cccc(F)c5)c(Cl)c4)ncnc3s2)C1
numeric readout: -39.51
--
compound: O=C(/C=C/c1ccc(Cl)c(Cl)c1)NCCCCCN1CCCN(C(=O)Nc2ccc([N+](=O)[O-])cc2)CC1
numeric readout: -58.55
--
compound: O=C(Nc1cccnc1)c1cc(-c2cccnc2)nc2ccc(Cl)cc12
numeric readout: -11.56
--
compound: CCC(=O)c1c(C)n(-c2ncnc3c2nc(C)n3-c2ccc(C)cc2C)c2ccccc12
numeric readout: 51.77
--
compound: CCCCCCCc1c2c(C)c(C(=O)OCC)nc-2cc2n1CC(C)=C2C
numeric readout: 93.66
--
compound: O=C(Nc1ccc(NC2=NCCN2)cc1)c1ccc(C(=O)Nc2ccc(NC3=NCCN3)cc2)cc1
numeric readout: 30.06
--
compound: CCCNC(=O)C1Cc2cc(OC)c(OC)cc2C2(N1)C(=O)N(Cc1cccc(OC)c1)c1ccccc12 (stereo not drawn)
numeric readout: 26.41
--
compound: COc1ccc(C(=O)Nc2ccc(-c3ccc([N+](=O)[O-])cc3)cc2)cc1CCCN(C)C
numeric readout: 0.6115
--
compound: FC(F)(F)COc1c(CCNCCCCNCCc2ccc3ccccc3c2OCC(F)(F)F)ccc2ccccc12
numeric readout: 119.3

---

Listing of entries alongside the reported % Inhibition.
- System: P. falciparum stage V gametocytes
- Parameters: BacTiter-Glo ATP luminescence viability of purified stage V gametocytes in 384-well plates, per cent inhibition versus DMSO
- reported conditions: 48 h, 5 µM; inhibitor
Among all 13,000 compounds or so, about 3,200 (25%) showed an effect of 50% or more. The list shows a part of the results.

compound: Fc1cccc(C=NNc2ccnc3cc(Cl)ccc23)c1 [TCMDC-123966]
% Inhibition (%): -20.4

compound: Oc1cc2ccccc2cc1CNC1CCCCC1 [TCMDC-131977]
% Inhibition (%): -28.97

compound: CCN(CCCN1CCCCC1)c1nccc(Nc2ccc(Cl)cc2)n1 [TCMDC-137046]
% Inhibition (%): 6.161

compound: CN(C)Cc1cccc(-c2ccc(NC(=O)c3ccc4c(=O)n(Cc5ccoc5)cnc4c3)cc2)c1 [TCMDC-132369]
% Inhibition (%): 14.65

compound: Cc1nc(N)nc(N)c1OCCCCOc1ccccc1 [TCMDC-131353]
% Inhibition (%): -22.41

compound: CC(=O)Nc1ccc(C(=O)Nc2cccc(-c3ccc(-c4nc5cc(C(F)(F)F)ccc5[nH]4)s3)c2)cn1 [TCMDC-136825]
% Inhibition (%): 32.63

compound: CCOc1ccc2nc(C)cc(NN=Cc3cccc(C)n3)c2c1 [TCMDC-142050]
% Inhibition (%): 48.92

compound: CCCCCCNC(=O)C(N)CCCC(N)C(=O)NCCCCCC (stereo not drawn) [TCMDC-131401]
% Inhibition (%): 16.24

compound: O=C(NCCCNc1ccnc2cc(Cl)ccc12)c1ccccc1F [TCMDC-125231]
% Inhibition (%): 46.84

compound: COc1c(C2CCN(CCCCNC(=O)c3cc(-c4ccc(Cl)cc4)oc3C)CC2)ccc2c1CCCC2 [TCMDC-134696]
% Inhibition (%): 7.674

compound: Oc1ccc(Cl)cc1CN1CCC(CCOC(c2ccccc2)c2ccccc2)CC1 [TCMDC-136036]
% Inhibition (%): 7.087

compound: CCCc1cc(NCc2ccncc2)nc(Nc2ccc(F)cc2)n1 [TCMDC-134012]
% Inhibition (%): 34.89

compound: COc1ccc2nc(C)cc(NN=Cc3ccccc3F)c2c1 [TCMDC-142083]
% Inhibition (%): 38.04

compound: CC1CCCN(Cc2c(O)ccc3c(=O)c(-c4nc5ccccc5s4)c(N)oc23)C1 (stereo not drawn) [TCMDC-124468]
% Inhibition (%): -5.264

compound: CO/N=C(\C)c1ccc2c(c1)CCN(CCC1CCC(NC(=O)c3cccc(-c4noc(C)n4)c3)CC1)CC2 (stereo not drawn) [TCMDC-139923]
% Inhibition (%): 19.53

compound: COc1c(C2CCN(CCCCNC(=O)c3ccc(-c4ccc(Cl)cc4)cn3)CC2)ccc2c1CCCC2 [TCMDC-134687]
% Inhibition (%): 70.09

compound: CN1CCC(Oc2ccc(NC(=O)c3ccc4c(=O)n(Cc5ccccc5)cnc4c3)cc2Cl)CC1 [TCMDC-132373]
% Inhibition (%): -13.59

compound: C[C@H](CNc1ccnc(Nc2ccc3[nH]c(=O)[nH]c3c2)n1)c1ccccc1 [TCMDC-136804]
% Inhibition (%): -43.48

compound: Fc1cccc(C=NNc2ccnc3ccccc23)c1 [TCMDC-142058]
% Inhibition (%): -35.92

compound: N#Cc1ccc(NC(=O)c2ccc(C(=O)NCCCCN3CCC(c4ccc5c(c4OCCOC4CCCCO4)CCCC5)CC3)cc2)cc1 (stereo not drawn) [TCMDC-138789]
% Inhibition (%): 80.58

compound: CCOc1ccc2nc(C)cc(NN=Cc3ccccc3Cl)c2c1 [TCMDC-142090]
% Inhibition (%): 95.12

compound: CCn1c(Cc2ccccc2)nnc1SCC(=O)N1c2ccccc2Sc2ccccc21 [TCMDC-124373]
% Inhibition (%): -22.31

compound: COc1c(C2CCN(CCCCNC(=O)c3cc(-c4ccc(Cl)cc4)[nH]c3C)CC2)ccc2c1CCCC2 [TCMDC-135270]
% Inhibition (%): 45.24

compound: CN(C)Cc1ccc(-c2ccc(NC(=O)c3ccc4c(=O)n(Cc5ccccc5)cnc4c3)cc2)cc1 [TCMDC-132361]
% Inhibition (%): 121.5
